Answer each item with its documented abundance fitness.
B1: POU domain, class 5, transcription factor 1, residues 134 to 212; numbered along this chain, Q01860 (parent)
chain: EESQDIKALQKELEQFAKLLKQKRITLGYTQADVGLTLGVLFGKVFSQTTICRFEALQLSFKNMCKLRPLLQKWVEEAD

Variants of: B1
assay-details: abundance fitness (aPCA) (normalised: wild type 0, dead -1); higher = more abundant; growth selection in yeast, the domain comes from the species named
condition-details: Homo sapiens
Form rule: numeric answer, no unit written next to it.

Report abundance fitness for EESQDIKALQKELEQFAKLLKQKRITLGYTQADVGLTLGVLFGKVFSQTTICRFEASQLSFKNMCKLRPLLQKWVEEAD [L57S] please. -0.306

Report abundance fitness for EESFDIKALQKELEQFAKLLKQKRITLGYTQADVGLTLGVLFGKVFSQTTICRFEALQLSFKNMCKLRPLLQKWVEEAD [Q4F] please. -0.059

Report abundance fitness for EESQDIKALQKELEQFAKLLKQKRITLGYTQADVGLTTGVLFGKVFSQTTICRFEALQLSFKNMCKLRPLLQKWVEEAD [L38T] please. -0.035

Report abundance fitness for EESQDIKALQKELEQFAKLLKQKRITLGYTQADVGLTLSVLFGKVFSQTTICRFEALQLSFKNMCKLRPLLQKWVEEAD [G39S] please. -0.006

Report abundance fitness for EESQDIKALQKELEQFAKLLKQKRITLGYTQADVGLTLGVLFGKVFSQTTICRFEACQLSFKNMCKLRPLLQKWVEEAD [L57C] please. 0.035

Report abundance fitness for EESQDIKALQKELEQFAKLLKQKRITLGYTQADVGPTLGVLFGKVFSQTTICRFEALQLSFKNMCKLRPLLQKWVEEAD [L36P] please. -0.6

Report abundance fitness for EESQDIKALQKELEQFAKLLKQKRITLGYTQADVGLTLGVLFGKVFSQTTICRFEALQLSFKNMCKLRPLLQKWWEEAD [V75W] please. -0.802

Report abundance fitness for EESQDIKALQKELEQFAKLLKQKRITLQYTQADVGLTLGVLFGKVFSQTTICRFEALQLSFKNMCKLRPLLQKWVEEAD [G28Q] please. -0.389

Report abundance fitness for EESQDIKALQKELEQFAKLLKQKRITLGYTQADVGLTLGVLFGKVFSQTTICRFEALQLSFKNMCKLRPLMQKWVEEAD [L71M] please. -0.251

Report abundance fitness for EESQDIKALQKELEQFAKLLKQKRITLGYTQADVGLTLGVLFGKVFSQTTICRFEALQLSFKNMCKLRPLLMKWVEEAD [Q72M] please. -0.31

Report abundance fitness for EESQDIKALQKELEQFAKLLKQKRITLGYTQADVGLTLGVLFGKVFSQTTICRFEALQLSFKNMCKLRPLLQKWCEEAD [V75C] please. -0.343

Report abundance fitness for EESQDIKALQKELEQFAKLLKQKRITLGYTQADVGLTLGVVFGKVFSQTTICRFEALQLSFKNMCKLRPLLQKWVEEAD [L41V] please. -0.329

Report abundance fitness for EESQDIKALQKELEQFAKLLKQKRITLGYTQADVGLTLGVLFGKAFSQTTICRFEALQLSFKNMCKLRPLLQKWVEEAD [V45A] please. 0.127

Report abundance fitness for EESQDIKALQKELEQFAKLLKQKRITLGYTQADVGLTLGVLFGKVFSQTTICRFEALQLSCKNMCKLRPLLQKWVEEAD [F61C] please. -0.441

Report abundance fitness for EESQDIKALQKELEQFAKLLKQKRITLGYTQADVGLTLGVLFGKVFSQTTICRFEALQGSFKNMCKLRPLLQKWVEEAD [L59G] please. -0.432

Report abundance fitness for EESQDIKALQKELEQFAKLLKQKRITKGYTQADVGLTLGVLFGKVFSQTTICRFEALQLSFKNMCKLRPLLQKWVEEAD [L27K] please. -0.31

Report abundance fitness for EESQDIKALQKELEQFAKLLKQKRITLGYTQADVGLTLGVLFGKVFSQTTICRFEALQLSFKRMCKLRPLLQKWVEEAD [N63R] please. 0.037

Report abundance fitness for EESQDIKALQKELEQFAKLLKQKRITLGYTQADVGLTLGVLFGKVFSQTTICRFEALWLSFKNMCKLRPLLQKWVEEAD [Q58W] please. -0.179

Report abundance fitness for EESQDIKALQKELEQFAKLLKQKRITLGYTQADVGLTLGVLFGKVFSQTCICRFEALQLSFKNMCKLRPLLQKWVEEAD [T50C] please. -0.298

Report abundance fitness for EESQDIKALQKELEQFAKLLKQKRITLGYTQADVGLTLGVLFGKVFSQTTICRFEALQLSFKNMGKLRPLLQKWVEEAD [C65G] please. -0.691

Report abundance fitness for EESQDIKALQKELEQFAKLLKQKRITLGYTQADVGLTLGVLFGKVTSQTTICRFEALQLSFKNMCKLRPLLQKWVEEAD [F46T] please. 0.025

Report abundance fitness for EESQDTKALQKELEQFAKLLKQKRITLGYTQADVGLTLGVLFGKVFSQTTICRFEALQLSFKNMCKLRPLLQKWVEEAD [I6T] please. 0.195

Attribution: the Human Domainome abundance scans (Beltran et al. 2025)
